Examples of molecules with documented IC50 follow.
biological target: Bifunctional epoxide hydrolase 2 (Homo sapiens); assay: Inhibition of soluble epoxide hydrolase (unknown origin) using PHOME as substrate measured for 1 hr by fluorescence assay
Sequence (P34913 whole entry): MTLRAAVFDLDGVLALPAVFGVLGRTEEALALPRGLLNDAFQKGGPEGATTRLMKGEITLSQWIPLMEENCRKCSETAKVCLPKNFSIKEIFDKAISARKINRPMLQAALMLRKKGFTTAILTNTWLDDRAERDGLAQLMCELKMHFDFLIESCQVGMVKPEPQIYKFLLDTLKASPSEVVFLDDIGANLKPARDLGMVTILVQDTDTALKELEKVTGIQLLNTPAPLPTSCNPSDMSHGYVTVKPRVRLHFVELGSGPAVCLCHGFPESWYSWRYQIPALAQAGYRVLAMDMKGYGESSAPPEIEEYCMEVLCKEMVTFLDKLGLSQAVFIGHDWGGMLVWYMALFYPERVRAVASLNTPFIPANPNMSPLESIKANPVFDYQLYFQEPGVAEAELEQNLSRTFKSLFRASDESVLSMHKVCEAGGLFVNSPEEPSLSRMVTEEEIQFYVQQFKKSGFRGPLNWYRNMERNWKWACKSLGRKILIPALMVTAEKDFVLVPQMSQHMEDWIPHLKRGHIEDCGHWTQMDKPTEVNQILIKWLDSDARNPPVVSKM
Number only, in µM; omit the unit.

Below are worked cases with known answers.
Req: Give recorded IC50. `C[C@H]1[C@H]2[C@@H](O[C@@]3(O)[C@@H]1OC(C)(C)[C@H]3O)[C@H](O)[C@@]1(C)[C@@H]3CC[C@H]4C(C)(C)[C@@H](O[C@@H]5OC[C@@H](O)[C@H](O)[C@H]5O)CC[C@@]45C[C@@]35CC[C@]21C`
Resp: 4.4

Req: Give recorded IC50. `C[C@@H]1C[C@H]([C@@H](O)C(C)(C)O)O[C@]2(O)[C@H]1[C@@]1(C)CC[C@@]34C[C@@]35CC[C@H](O[C@@H]3OC[C@@H](O)[C@H](O)[C@H]3O)C(C)(C)[C@@H]5CC=C4[C@]1(C)[C@H]2O`
Resp: 10.7

Req: Give recorded IC50. `COC(C)(C)[C@H]1O[C@@]23O[C@@H]1C[C@@H](C)[C@@H]2[C@@]1(C)CC[C@@]24C[C@@]25CC[C@H](O[C@@H]2OC[C@@H](O)[C@H](O)[C@H]2O)C(C)(C)[C@@H]5CC=C4[C@]1(C)[C@H]3O`
Resp: 0.4

From here, focus on the item given below.
Req: Give recorded IC50. C[C@@H]1C[C@]23OCC(C)(O)[C@H]2O[C@@]2(O3)[C@H]1[C@@]1(C)CC[C@@]34C[C@@]35CC[C@H](O[C@@H]3OC[C@@H](O)[C@H](O)[C@H]3O)C(C)(C)[C@@H]5CC=C4[C@]1(C)[C@H]2O (some centres undefined)
Resp: 14.6
